Data provenance: patent US9981944B2

SYSTEM: HIS-TGFβR1 T204D (Homo sapiens (Human), UniProt P36897, T204D)
Sequence (P36897 34-503 T204D): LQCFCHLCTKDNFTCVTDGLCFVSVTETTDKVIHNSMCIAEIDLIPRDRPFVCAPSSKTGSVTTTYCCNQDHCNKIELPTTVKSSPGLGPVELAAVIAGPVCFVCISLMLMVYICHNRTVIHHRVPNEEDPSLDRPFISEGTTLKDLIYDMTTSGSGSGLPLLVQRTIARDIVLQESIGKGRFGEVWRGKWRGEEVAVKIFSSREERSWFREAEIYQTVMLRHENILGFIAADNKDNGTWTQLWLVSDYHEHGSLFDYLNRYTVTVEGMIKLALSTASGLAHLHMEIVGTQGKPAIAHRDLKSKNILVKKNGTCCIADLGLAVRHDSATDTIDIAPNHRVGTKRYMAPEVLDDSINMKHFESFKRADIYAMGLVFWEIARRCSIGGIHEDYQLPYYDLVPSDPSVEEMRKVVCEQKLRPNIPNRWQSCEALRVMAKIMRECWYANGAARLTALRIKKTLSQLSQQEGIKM
ASSAY_PROTOCOL: HTRF probe displacement assay, HIS-TGFβR1 T204D
CONDITION_SET: 1 nM HIS-TGFβR1 T204D, 1 hour at room temperature, read-out: TGFBR1T204D IC50
MEASURED_ATTRIBUTE: IC50 (nM)

Examples from the recorded data:
# SMILES_ENTRY, IC50 [nM]
records = [
    ("N#Cc1cnc2ccc(-c3cccnc3-c3cccc(C(F)F)n3)nn12", 61),
    ("Cc1nc(-c2ncccc2-c2ccc3ncc(C(N)=O)n3c2)ccc1F", 1),
]

1. Cc1cccc(-c2ncccc2-c2ccn3ncc(C(=O)NC4CC4)c3n2)n1
2. Cc1nc(-c2ncccc2-c2ccn3nccc3n2)ccc1F
Which has the smaller recorded IC50, 1 or 2 ? Indicate your choice by writing its label. 2

P. Nc1ncnc2ccc(-c3cccnc3-c3cccc(C(F)F)n3)nc12
Q. CC(=O)Nc1ccnc(-c2cccc(C)n2)c1-c1ccc2ncc(C#N)n2c1
R. Cc1cccc(-c2ncccc2-c2ccc3ncc(C(=O)NC4CC4)n3n2)n1
S. Cc1cccc(-c2ncccc2-c2ccc3ncc(NC(=O)C(F)(F)F)n3c2)n1
T. Cc1cccc(-c2ncccc2-c2ccn3nccc3n2)n1
Please order the records by their reported IC50, lowest number first. Returns: the labels listed in the requested order. P, T, R, S, Q
(P: 3 nM, T: 5 nM, R: 25 nM, S: 37 nM, Q: 11100 nM)

I. N#Cc1cnc2ccc(-c3cccnc3-c3cc(F)ccn3)cn12
II. N#Cc1cnc2ccc(-c3cccnc3-c3cccc(F)n3)cn12
Which has the smaller recorded IC50, I or II ? Indicate your choice by writing its label. II

A. Cc1ccc(-c2ncccc2-c2ccc3ncc(C(N)=O)n3n2)nc1
B. FC(F)c1cccc(-c2ncccc2-c2ccc3[nH]nc(C(F)F)c3c2)n1
Which has the smaller recorded IC50, A or B ? Indicate your choice by writing its label. B
(B: 427 nM, A: 5300 nM)

* * *

System: GDF8 signaling (p-SMAD-3 Ser423/425)
ASSAY_PROTOCOL: AlphaScreen SureFire SMAD3 (p-Ser423/425) assay, GDF8 stimulated (GDF pSMAD (MPC11))
Format: cell-based
CONDITION_SET: Mus musculus, MPC-11, inhibition of GDF8 signaling
pIC50: −log10 of the molar value. Counter-ions that a name gives are not always drawn.
MEASURED_ATTRIBUTE: pIC50

# MOLECULE, pIC50
data = [
    ("Cc1cccc(-c2ncccc2-c2ccnc3ccccc23)n1 [Compound 1]", 4.71),
    ("Cc1cccc(-c2ncccc2-c2ccc3ncc(C#N)n3c2)n1 [Compound 3]", 6.13),
    ("Cc1cccc(-c2ncccc2-c2ccc3ncnc(N)c3c2)n1 [Compound 2A, 2,2,2-trifluoroacetate]", 6.89),
    ("Nc1ncnc2ccc(-c3cccnc3-c3cccc(F)n3)cc12 [Compound 11A, 2,2,2-trifluoroacetate]", 6.64),
    ("Cc1cccc(-c2ncccc2-c2ccc3ncnn3c2)n1 [Compound 4]", 6.67),
]

A. NC(=O)c1cnc2ccc(-c3cccnc3-c3ccccn3)cn12 [Compound 9]
B. c1ccc(-c2ncccc2-c2ccc3ncnn3c2)nc1 [Compound 8]
C. Cc1cccc(-c2ncccc2-c2ccc3ncc(C(N)=O)n3c2)n1 [Compound 6]
Output the entries ranked by pIC50 from maximum down to minimum. Returns: the labels listed in the requested order. C, A, B
(C: 7.54, A: 6.92, B: 5.09)

P. N#Cc1cnc2ccc(-c3cccnc3-c3ccccn3)cn12 [Compound 7]
Q. Nc1ncnc2ccc(-c3cccnc3-c3ccccn3)cc12 [Compound 12A, formate]
Larger number for pIC50: P , or Q ? Indicate your choice by writing its label. Q

* * *

SYSTEM: HIS-TGFβR1 T204D (Homo sapiens (Human), UniProt P36897, T204D)
ASSAY_PROTOCOL: HTRF probe displacement assay, HIS-TGFβR1 T204D
CONDITION_SET: 1 nM HIS-TGFβR1 T204D, 1 hour at room temperature, read-out: TGFBR1T204D IC50
MEASURED_ATTRIBUTE: IC50 (nM)

Examples from the recorded data:
# SMILES_ENTRY, U, MEAS_VALUE
data = [
    ("Cc1cccc(-c2ncccc2-c2ccc3ncc(C#N)n3n2)n1", "nM", 35),
    ("Cc1cccc(-c2nc(C)ccc2-c2ccc3ncc(C(N)=O)n3c2)n1", "nM", 15),
    ("Nc1ncnc2ccc(-c3cccnc3-c3cccc(C4CC4)n3)nc12", "nM", 4),
]

a. Cc1cccc(-c2ncccc2-c2ccn3ncc(C(=O)NC4COC4)c3n2)n1
b. CC(C)c1cccc(-c2ncccc2-c2ccc3ncc(C#N)n3n2)n1
Larger number for IC50: a , or b ? Indicate your choice by writing its label. b
(b: 1950 nM, a: 29 nM)

* * *

SYSTEM: HIS-TGFβR1 T204D (Homo sapiens (Human), UniProt P36897, T204D)
ASSAY_PROTOCOL: HTRF probe displacement assay, HIS-TGFβR1 T204D
CONDITION_SET: 1 nM HIS-TGFβR1 T204D, 1 hour at room temperature, read-out: TGFBR1T204D IC50
Procedure: Compounds were dissolved at 10 mM in dimethylsulfoxide (DMSO) and evaluated at eleven concentrations. IC50 values were derived by non-linear regression analysis.
MEASURED_ATTRIBUTE: IC50 (nM)

Examples from the recorded data:
# SMILES_ENTRY, MEASURED_ATTRIBUTE, MEAS_VALUE
rows = [
    ("Cc1nc(-c2ncccc2-c2ccc3ncc(C#N)n3c2)ccc1F", "IC50", 10),
    ("NC(=O)c1cnc2ccc(-c3cccnc3-c3ccc(F)cn3)cn12", "IC50", 5),
    ("COc1cccc(-c2ncccc2-c2ccc3ncc(C#N)n3n2)n1", "IC50", 43),
]

a. Cc1ccc(-c2ncccc2-c2ccc3ncc(C#N)n3n2)nc1
b. Cc1nc(-c2ncccc2-c2ccc3nc(C(N)=O)cn3c2)ccc1F
Larger number for IC50: a , or b ? Indicate your choice by writing its label. b

* * *

SYSTEM: HIS-TGFβR1 T204D (Homo sapiens (Human), UniProt P36897, T204D)
ASSAY_PROTOCOL: HTRF probe displacement assay, HIS-TGFβR1 T204D
CONDITION_SET: 1 nM HIS-TGFβR1 T204D, 1 hour at room temperature, read-out: TGFBR1T204D IC50
pIC50: −log10 of the molar value.
MEASURED_ATTRIBUTE: pIC50

# SMILES_ENTRY, MEAS_VALUE
data = [
    ("Cc1cccc(-c2nc(C(F)(F)F)ccc2-c2ccc3ncc(C(N)=O)n3c2)n1", 7.08),
    ("CCOC(=O)c1cnn2ccc(-c3cccnc3-c3cccc(C(F)F)n3)nc12", 7.55),
    ("N#Cc1cnc2ccc(-c3cccnc3-c3ccc(F)c(C(F)F)n3)cn12", 6.89),
]

1. CC(C)c1cccc(-c2ncccc2-c2ccc3ncc(C#N)n3c2)n1
2. Cc1nc(-c2ncccc2-c2ccn3ncc(C(=O)NC4CC4)c3n2)ccc1F
3. Cc1ccc(-c2ccc3ncc(C(N)=O)n3c2)c(-c2cccc(C(F)F)n2)n1
4. NC(=O)c1cn2cc(-c3cccnc3-c3cccc(C(F)(F)F)n3)ccc2n1
5. NC(=O)c1cnc2ccc(-c3cccnc3-c3ccccn3)cn12
Output the entries ranked by pIC50 from maximum down to minimum. Returns: the labels listed in the requested order. 5, 3, 2, 1, 4

1. Cc1nc(-c2ncccc2-c2ccc3nccnc3c2)ccc1F
2. CNC(=O)c1cnn2ccc(-c3cccnc3-c3cccc(C)n3)nc12
Which has the smaller recorded pIC50, 1 or 2 ? Indicate your choice by writing its label. 2
(2: 6.89, 1: 7.92)

* * *

The reader will find IC50 measurements below, all made with HIS-TGFβR2 WT (Homo sapiens (Human)).
Sequence (P37173 23-567): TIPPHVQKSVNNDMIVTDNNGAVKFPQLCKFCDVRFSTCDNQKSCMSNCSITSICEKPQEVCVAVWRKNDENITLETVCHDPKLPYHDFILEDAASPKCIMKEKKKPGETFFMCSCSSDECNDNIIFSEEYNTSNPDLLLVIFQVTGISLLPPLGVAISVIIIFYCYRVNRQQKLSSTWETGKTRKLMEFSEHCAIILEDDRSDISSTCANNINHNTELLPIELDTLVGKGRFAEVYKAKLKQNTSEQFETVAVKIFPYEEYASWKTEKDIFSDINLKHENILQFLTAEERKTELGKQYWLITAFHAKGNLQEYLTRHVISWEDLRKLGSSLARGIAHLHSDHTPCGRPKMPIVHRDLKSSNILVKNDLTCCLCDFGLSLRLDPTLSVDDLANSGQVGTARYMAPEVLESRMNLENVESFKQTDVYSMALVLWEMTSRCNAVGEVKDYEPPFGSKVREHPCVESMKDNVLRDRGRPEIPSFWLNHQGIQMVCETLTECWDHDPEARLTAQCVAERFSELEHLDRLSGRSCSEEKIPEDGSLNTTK

# SMILES_ENTRY, MEASURED_ATTRIBUTE, MEAS_VALUE
measured = [
    ("CNC(=O)c1cnn2ccc(-c3cccnc3-c3cccc(C)n3)nc12", "IC50", "> 15 µM"),
    ("N#Cc1cnc2ccc(-c3cccnc3-c3cccc(C4CC4)n3)cn12", "IC50", "> 15 µM"),
    ("NC(=O)c1cnc2ccc(-c3cccnc3-c3ccc(F)c(C(F)F)n3)cn12", "IC50", "> 15 µM"),
]

# context switch: different compound, same IC50
The recorded IC50 for `COc1cccc(-c2ncccc2-c2ccc3ncc(C(N)=O)n3n2)n1` is > 15 µM

* * *

SYSTEM: HIS-TGFβR1 T204D (Homo sapiens (Human), UniProt P36897, T204D)
ASSAY_PROTOCOL: HTRF probe displacement assay, HIS-TGFβR1 T204D
CONDITION_SET: 1 nM HIS-TGFβR1 T204D, 1 hour at room temperature, read-out: TGFBR1T204D IC50
MEASURED_ATTRIBUTE: IC50 (nM)

# SMILES_ENTRY, U, IC50
data = [
    ("Cc1cccc(-c2ncccc2-c2ccc3ncc(C(=O)NCC(F)(F)F)n3c2)n1", "nM", 7),
]

P. NC(=O)c1cnc2ccc(-c3cccnc3-c3ccc(C(=O)O)cn3)cn12
Q. COC(=O)c1ccnc(-c2cccc(C)n2)c1-c1ccc2ncc(C#N)n2c1
R. N#Cc1cnc2ccc(-c3cccnc3-c3cccc(C(F)F)n3)cn12
S. Fc1ccc(-c2ncccc2-c2ccc3[nH]ncc3c2)nc1
T. NC(=O)c1cnc2ccc(-c3cccnc3-c3cccc(C(F)F)n3)cn12
Please order the records by their reported IC50, lowest number first. Returns: the labels listed in the requested order. T, R, S, Q, P
(T: 1 nM, R: 9 nM, S: 14 nM, Q: 652 nM, P: 14300 nM)
